Test system: Escherichia coli
Assay: Antimicrobial activity against Escherichia coli MTCC 443 assessed as diameter of growth inhibition zone at 25 ug/ml after 18-24 hr by agar cup diffusion method
Assay type: functional
Conditions: read-out: DIZ
valueKind: zone of inhibition at 25 µg/mL

These recorded examples may help you get a feel for the data.
| testSmiles | zone of inhibition at 25 µg/mL |
| --- | --- |
| O=C(/C=C/c1ccc([N+](=O)[O-])cc1)C1C(=O)NC(=S)NC1=O | 12 mm |
| O=C(/C=C/c1ccc(Cl)cc1)C1C(=O)NC(=S)NC1=O | 11 mm |
| O=C(/C=C/c1ccc2ccccc2c1)C1C(=O)NC(=S)NC1=O | 14 mm |
| Cc1ccc(/C=C/C(=O)C2C(=O)NC(=S)NC2=O)cc1 | 15 mm |
| O=C(/C=C/c1ccccc1)C1C(=O)NC(=S)NC1=O | 12 mm |
| O=C(/C=C/c1ccccc1Cl)C1C(=O)NC(=S)NC1=O | 13 mm |
| COc1ccc(/C=C/C(=O)C2C(=O)NC(=S)NC2=O)cc1 | 15 mm |
| O=C(/C=C/c1ccc(O)cc1)C1C(=O)NC(=S)NC1=O | 15 mm |

Assay Escherichia coli, sample COc1ccc(/C=C/C(=O)C2C(=O)NC(=S)NC2=O)cc1OC , zone of inhibition at 25 µg/mL read: 12 mm

Assay Escherichia coli, sample O=C(/C=C/c1ccccc1O)C1C(=O)NC(=S)NC1=O , zone of inhibition at 25 µg/mL read: 13 mm

Assay Escherichia coli, sample O=C(/C=C/c1cccc([N+](=O)[O-])c1)C1C(=O)NC(=S)NC1=O , zone of inhibition at 25 µg/mL read: 15 mm

* * *

Tested on: Candida albicans
Test: Antimicrobial activity against Candida albicans MTCC 227 assessed as diameter of growth inhibition zone at 250 ug/ml after 48-96 hr by agar cup diffusion method
Format: functional
Settings: read-out: DIZ
valueKind: zone of inhibition at 250 µg/mL (mm)
Answer with a number only, understood to be in mm.

These recorded examples may help you get a feel for the data.
| testSmiles | recordedResult |
| --- | --- |
| Cc1ccc(/C=C/C(=O)C2C(=O)NC(=S)NC2=O)cc1 | 24 |
| O=C(/C=C/c1ccc([N+](=O)[O-])cc1)C1C(=O)NC(=S)NC1=O | 25 |
| O=C(/C=C/c1ccc(O)cc1)C1C(=O)NC(=S)NC1=O | 23 |
| O=C(/C=C/c1ccc2ccccc2c1)C1C(=O)NC(=S)NC1=O | 25 |
| O=C(/C=C/c1cccc([N+](=O)[O-])c1)C1C(=O)NC(=S)NC1=O | 24 |
| COc1ccc(/C=C/C(=O)C2C(=O)NC(=S)NC2=O)cc1OC | 25 |
| O=C(/C=C/c1ccccc1Cl)C1C(=O)NC(=S)NC1=O | 23 |
| O=C(/C=C/c1ccccc1O)C1C(=O)NC(=S)NC1=O | 24 |
| O=C(/C=C/c1ccc(Cl)cc1)C1C(=O)NC(=S)NC1=O | 23 |
| COc1ccc(/C=C/C(=O)C2C(=O)NC(=S)NC2=O)cc1 | 24 |

Okay, next one:
Entry O=C(/C=C/c1ccccc1)C1C(=O)NC(=S)NC1=O , zone of inhibition at 250 µg/mL reported as 22
